Values from patent US20090258005A1

Target: T1, EQR (Her017P)
T1 construct: also called HER2 EQR-Fc; HER2 EQR DIMER
Assay: ELISA, soluble scFv on EQR
metric: binding result

// worked examples, binding result included
| binder | measured |
| --- | --- |
| S1R3A1_CS_1B10 (scFv, V domains shown, scFv, soluble from bacterial periplasm in the screen; also called Her2_S1R3A1_CS_1B10) VH: EVQLVQSGAEVKKPGASVRVSCKGSGNTFTGHYIHWVRQAPGQGLEWLGWIDPNTGDIQYSENFKGSVTLTRDPSINSVFMDLIRLTSDDTAMYYCAREGAGLANYYYYGLDVWGRGTMVTVSS VL: QTVVLQEPSFSVSPGGTVTLTCGLNFGSVSTAYYPSWYQQTPGQAPRTLIYGTNIRSSGVPDRFSGSIVGNKAALTITGAQTEDESDYYCALYMGSGMLFGGGTKVTVL | binds |
| S1R3B1_BMV_1G11 (scFv, V domains shown, scFv, soluble from bacterial periplasm in the screen; also called Her2_S1R3B1_BMV_1G11) VH: QVQLVQSGGGLVQPGGSLRLSCAASGFTFSTYAMSWARQAPGKGLEWVSSISGDGGRILDADSAKGRFTISRDNSKNTLYLQMNGLRVEDTALYYCARADGNYWGRGTMVTVSS VL: QSVLTQPASVSGSPGQSITISCTGTSSDVGGYNYVSWYQQHPGKAPKLMIYEGSKRPSGVSNRFSGSKSGNTASLTISGLQAEDEADYYCSSYTTRSTRVFGGGTKLTVL | no binding |
| S1R3B1_BMV_1A10 (scFv, V domains shown, scFv, soluble from bacterial periplasm in the screen; also called Her2_S1R3B1_BMV_1A10) VH: QMQLVQSGGGVVQPGRSLRLSCAASGFTFSSYGMHWVRQAPGKGLEWVAVISYDGSIKYYADSVKGRFTISRDNSKNTLYLQMNSLRAEDTGVYYCSKDRYSSGWYSSDAFDIWGRGTMVTVSS VL: SSELTQDPAVSVALGQTVRITCQGDSLRSYYASWYQQKPGQAPVLVIYGKNNRPSGIPDRFSGSSSGNTASLTITGAQAEDEADYYCHSRDSSGNHVLFGGGTKLTVL | no binding |
| S1R3A1_CS_1B9 (scFv, V domains shown, scFv, soluble from bacterial periplasm in the screen; also called Her2_S1R3A1_CS_1B9) VH: KVQLVQSGTEVKKPGESLKISCQGSGYRFSSDWIAWVRQMPGKGLEWMGIVYPGDSDTRYSPSFQGQVTISADKSISTAYLQWSGLKASDTAKYYCARVQQAVGAKGYAMDVWGKGTLVTVSS VL: QTVVIQEPSFSVSPGGTVTLTCGLSSGSVSTSYYPSWYRQTPGQAPHTLIHNTKIRSSGVPDRFSGSILGNNAALTITGAQADDESDYYCLLYMGSGIYVFGGGTKLTVL | binds |

Alright, here's another binder for you.
Query: For the binder S1R3B2_BMV_1E1 (scFv, V domains shown, scFv, on phage in the screen; also called Her2_S1R3B2_BMV_1E1) VH: EVQLVETGGGVVQPGGSLSLSCAASGFTFSSYGMQWVRQAPGKGLEWVAFIRYDGSSEYYADSVKGRFTISRDNSKNTLYLQMNSLRAEDTAVYYCGRTLESSLWGKGTLVTVSS VL: QSVLTQPPSVSAAPGQKVTISCSGSTSNIGNNYVSWYQQHPGKAPKLMIYDVSKRPSGVPDRFSGSKSGNSASLDISGLQSEDEADYYCAAWDDSLSEFLFGTRTKLTVL , report binding result.
Response: no binding
